- assay comment: Metabolic stability in CD-1 mouse plasma assessed as parent compound remaining at 3 uM after 2 hrs by LC-MS/MS analysis
Entries and their Stability values follow.

Sample answers from the record:
[
  {
    "structure smiles": "O=c1c2nc([N+](=O)[O-])cn2ccn1Cc1ccc(OC(F)(F)F)cc1",
    "quantity": "Stability",
    "measured value": "> 99%"
  },
  {
    "structure smiles": "O=c1c2nc([N+](=O)[O-])cn2ccn1Cc1ccc(F)cc1",
    "quantity": "Stability",
    "measured value": "> 99%"
  }
]

// next item, Stability requested
Record Cc1ccc(Cn2ccn3cc([N+](=O)[O-])nc3c2=O)cc1 . Reported Stability: > 99%

----------
- Tested on: Trypanosoma brucei brucei
- assay comment: Antiparasitic activity against bloodstream form of Trypanosoma brucei brucei strain 427 after 48 hrs by resazurin dye-based assay
- Format: functional, organism-based
- experimental conditions: strain 427, 48 h, read-out: IC50
quantity: pIC50
Interpret pIC50 as the negative base-10 log of the concentration measured in mol/L.

Here is how some compounds turned out for pIC50.
[
  {
    "structure smiles": "Cc1[nH]c(=O)c2nc([N+](=O)[O-])cn2c1C",
    "pIC50": 5.59
  },
  {
    "structure smiles": "O=[N+]([O-])c1cn2cc(-c3ccccc3)nc(OCCO)c2n1",
    "pIC50": 5.96
  }
]

Entry CC(=O)OCCOc1nc(-c2ccccc2)cn2cc([N+](=O)[O-])nc12 — recorded pIC50 = 5.82

The compound O=c1c2nc([N+](=O)[O-])cn2ccn1Cc1ccc(F)cc1 showed pIC50 equal to 5.54
